The reported numbers originate from ChEMBL document CHEMBL1961873.

- Assay Target: Leukocyte tyrosine kinase receptor (Homo sapiens) (UniProt P29376)
- Sequence (P29376 whole entry): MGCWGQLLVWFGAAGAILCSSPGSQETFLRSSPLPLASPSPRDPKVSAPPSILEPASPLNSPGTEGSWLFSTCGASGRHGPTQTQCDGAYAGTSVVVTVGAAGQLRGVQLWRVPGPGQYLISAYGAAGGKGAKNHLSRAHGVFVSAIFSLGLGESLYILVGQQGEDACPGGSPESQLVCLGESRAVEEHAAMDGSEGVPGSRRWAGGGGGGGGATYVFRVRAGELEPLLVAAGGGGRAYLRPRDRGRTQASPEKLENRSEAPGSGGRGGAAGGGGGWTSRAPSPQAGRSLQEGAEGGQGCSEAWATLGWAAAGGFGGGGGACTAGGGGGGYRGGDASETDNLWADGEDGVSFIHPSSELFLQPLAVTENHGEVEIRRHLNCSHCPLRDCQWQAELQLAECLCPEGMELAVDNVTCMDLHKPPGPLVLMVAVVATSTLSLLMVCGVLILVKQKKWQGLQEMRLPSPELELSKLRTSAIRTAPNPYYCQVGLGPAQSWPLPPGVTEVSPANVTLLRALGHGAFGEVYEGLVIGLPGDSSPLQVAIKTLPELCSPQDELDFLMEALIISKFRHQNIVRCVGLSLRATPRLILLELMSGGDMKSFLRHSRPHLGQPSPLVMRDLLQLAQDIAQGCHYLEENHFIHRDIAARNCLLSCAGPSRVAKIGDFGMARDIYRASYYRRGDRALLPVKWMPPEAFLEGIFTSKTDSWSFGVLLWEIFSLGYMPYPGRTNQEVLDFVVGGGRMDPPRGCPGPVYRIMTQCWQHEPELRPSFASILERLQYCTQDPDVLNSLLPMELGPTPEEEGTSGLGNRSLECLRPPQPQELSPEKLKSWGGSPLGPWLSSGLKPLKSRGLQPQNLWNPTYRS
- Condition Notes: at 0.1 µM
- Description: GSK_PKIS: LTK mean inhibition at 0.1 uM [Nanosyn]
inhibition by entry:
Report as a plain number; the unit % is understood.

NC(=O)c1cc(-c2ccc(F)cc2)cc(-c2ccncc2)c1N
3.88
COc1cc(Nc2ncc3c(C)nc(-c4cccc(C(F)(F)F)c4)n3n2)cc(OC)c1OC
4.18

Item under review: CN(C)CCOc1ccc(-c2cc(-c3ccc4c(c3)CCC4=NO)c(-c3ccncc3)o2)cc1 . Reported inhibition?
-0.5

Now try CS(=O)(=O)CCNCc1ccc(-c2ccc3ncnc(Nc4ccc(OCc5ccccc5)c(Br)c4)c3c2)o1 .
2.96

Entry to check: Cc1nnc(-c2ccc(C)c(-c3ccc(C(=O)NCc4ccc(Cl)cc4)cc3)c2)o1
1.83

One more molecule: C[C@@H](Oc1cc(-n2cnc3ccc(OC4CCN(C)CC4)cc32)sc1C(N)=O)c1ccccc1Cl
4.01

Next molecule up: O=C(NCC1CC1)c1ccc(-c2cccc(C(=O)NC3CC3)c2)cc1
1.6

Next entry: COc1cc(N2CCN(C(C)C)CC2)ccc1Nc1nc(Nc2ccc(F)cc2C(=O)NC[C@@H](O)CO)c2cc[nH]c2n1
55.2

Entry COc1ccc(C2=C(N3CCc4ccccc43)C(=O)NC2=O)cc1 please
5.23

For COc1ccc(-c2ccc3c(NC(=O)C4CC4)n[nH]c3n2)cc1 then?
1.94

# iterate: NC(=O)Cc1ccccc1Oc1nccc(-c2c(-c3ccc(F)cc3)ncn2C2CCNCC2)n1
3.35

Now try O=C(Nc1n[nH]c2cc(-c3cc(F)ccc3F)ccc12)C1CC1 .
6.64

Query O=C1NC(=O)C(c2cccc(Cl)c2)=C1Nc1ccc(Cl)c(C(=O)O)c1 next
2.51

----------
- Assay Target: Tyrosine-protein kinase Fyn (Homo sapiens) (UniProt P06241)
- Sequence (P06241 2-537 limits assumed): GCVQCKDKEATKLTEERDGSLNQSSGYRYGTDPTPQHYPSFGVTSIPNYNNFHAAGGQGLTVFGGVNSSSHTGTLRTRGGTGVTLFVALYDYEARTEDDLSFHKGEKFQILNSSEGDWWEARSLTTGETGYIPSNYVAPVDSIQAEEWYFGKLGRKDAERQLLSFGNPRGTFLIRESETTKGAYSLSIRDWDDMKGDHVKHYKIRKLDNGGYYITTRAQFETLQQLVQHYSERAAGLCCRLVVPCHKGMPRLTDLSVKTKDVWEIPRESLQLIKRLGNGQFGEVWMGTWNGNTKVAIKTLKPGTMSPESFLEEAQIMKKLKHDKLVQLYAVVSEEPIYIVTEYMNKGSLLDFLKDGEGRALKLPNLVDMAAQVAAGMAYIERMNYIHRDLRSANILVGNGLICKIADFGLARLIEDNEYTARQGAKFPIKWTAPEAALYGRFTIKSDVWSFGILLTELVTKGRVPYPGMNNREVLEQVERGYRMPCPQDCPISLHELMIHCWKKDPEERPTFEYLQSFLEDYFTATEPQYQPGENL
- Condition Notes: at 0.1 µM
- Description: GSK_PKIS: FYN mean inhibition at 0.1 uM [Nanosyn]
The entries below are paired with their reported inhibition.
// note: answer is a bare numeric in %

O=C(Nc1n[nH]c2cc(-c3cc(F)ccc3F)ccc12)C1CC1
2.47

Recorded inhibition of COc1cc2ncn(-c3cc(OCc4cccs4)c(C(N)=O)s3)c2cc1OC , please.
-2.3

Similarly, C#Cc1cccc(Nc2ncnc3ccc(OCCCCNCCS(C)(=O)=O)cc23)c1 ?
-1.92

Here is the next molecule: O=C(NCC1CC1)c1ccc(-c2cccc(C(=O)NC3CC3)c2)cc1
1.58

# iterate: C[C@@H](Oc1cc(-n2cnc3ccc(OC4CCN(C)CC4)cc32)sc1C(N)=O)c1ccccc1Cl
-3.18

Also need O=C1NC(=O)C(c2cccc(Cl)c2)=C1Nc1ccc(Cl)c(C(=O)O)c1 , thanks.
0.43

Try the molecule CN(C)c1ccc2c(c1)/C(=C/Nc1ccc(S(N)(=O)=O)cc1)C(=O)N2
2.68

What do you get for c1ccc(-c2n[nH]cc2-c2ccnc(-c3ccc(OCCN4CCOCC4)cc3)c2)nc1 ?
-0.84

Then NC(=O)c1cc(-c2ccncc2)cc(-c2ccccc2)c1N ?
6.39

Entry Fc1ccc(-c2ncn(C3CCNCC3)c2-c2ccnc(Oc3ccc4c(c3)OCO4)n2)cc1 please
1.06

Another: O=C(Nc1n[nH]c2nc(-c3ccco3)ccc12)C1CC1
1.1

Next molecule up: COc1ccc(C2=C(N3CCc4ccccc43)C(=O)NC2=O)cc1
2.77

Entry to check: Fc1ccc(-c2ncn(CCCN3CCOCC3)c2-c2ccncc2)cc1
-0.55
